- System: VRE
- experiment: Broth microdilution MIC, Example 7 (NCL812 and analogues)
- Format: cell-based, Enterococcus spp.
- assay.setup: VRE 1; 24 hours; duplicate lines per compound
measure.name: MIC (μg/ml) at 24 hours, VRE 1

compound	MIC (μg/ml) at 24 hours, VRE 1
C/C(=N\NC(=N)N/N=C(\C)c1ccc(Br)cc1)c1ccc(Br)cc1.Cl [NCL 155]	16 µg/mL
Cl.N=C(N/N=C/c1ccc(O)cc1O)N/N=C/c1ccc(O)cc1O [NCL103]	>128 µg/mL
Cl.N=C(NN=Cc1ccc(O)c(O)c1)NN=Cc1ccc(O)c(O)c1 [NCL111]	64 µg/mL
Cl.N=C(NN)NN=Cc1ccc(Cl)cc1 [NCL072]	64 µg/mL
Cl.N=C(N/N=C/c1ccc(Cl)cc1)N/N=C/c1ccc(C(F)(F)F)cc1F [NCL078]	2 µg/mL
Cl.N=C(NN=C(c1ccc(Cl)cc1O)C1CCCC1)NN=C(c1ccc(Cl)cc1O)C1CCCC1 [NCL 159]	16 µg/mL

[ask] Give the reported MIC (μg/ml) at 24 hours, VRE 1 for this compound. CCCC(=NNC(=N)NN=C(CCC)c1ccc(Cl)cc1)c1ccc(Cl)cc1.Cl [NCL 156]
[reply] >128 µg/mL

[ask] Give the reported MIC (μg/ml) at 24 hours, VRE 1 for this compound. Cc1ccc(/C=N/NC(=N)N/N=C/c2ccc(C)cc2)cc1.Cl [NCL 038]
[reply] 8 µg/mL

[ask] Give the reported MIC (μg/ml) at 24 hours, VRE 1 for this compound. Cl.N=C(NN=Cc1csc2ccc(Cl)cc12)NN=Cc1csc2ccc(Cl)cc12 [NCL 141]
[reply] 16 µg/mL
